test system: B16F10 melanoma cells expressing the intron-derived SL8 antigen; assay: T-cell assay: B3Z specific T-cell activation by B16F10 cells expressing the intron-derived SL8 antigen; format: cell-based, mouse; conditions: B16F10, 60 μM, O/N
property.measured: PTP-SL8 presentation (B3Z T-cell activation)

compound	system.under.test	observed.result
Cc1nc(Nc2nc(C)c3ccc(OP(=O)(O)O)cc3n2)[nH]c(=O)c1C [EYP59, Phosphate]	B16F10 melanoma cells expressing the intron-derived SL8 antigen	increase
COc1ccc2c(C)nc(Nc3ccnc(OC)n3)nc2c1	B16F10 melanoma cells expressing the intron-derived SL8 antigen	increase
COc1ccc2c(C)nc(Nc3cn(C(=O)OC(C)(C)C)c4ccccc34)nc2c1	B16F10 melanoma cells expressing the intron-derived SL8 antigen	not see any increase
COc1ccc2c(C)nc(Nc3ccc(C)cc3)nc2c1	B16F10 melanoma cells expressing the intron-derived SL8 antigen	not see any increase

Proceed to the following item.
Lookup: Determine from records and report PTP-SL8 presentation (B3Z T-cell activation) for COc1ccc2c(C)nc(Nc3c[nH]c4ccccc34)nc2c1
Found: increase

The reported numbers originate from patent US12213978B2.
